Listed here are compounds together with their documented inhibition at 30 µM.
- targetEntity: HIV-1 protease (Human immunodeficiency virus type 1 group M subtype B, UniProt P04585)
- measurementDescription: biochemical
- measurementParameters: read-out: HIV-1 Protease % Inhib, dose 30.000 uM
valueKind: inhibition at 30 µM (%)

compound="CCC1CCCCCc2c1oc(=O)c(C(c1ccccc1)C1CC1)c2O (stereo not shown)" observedvalue=111
compound="CC(C)C(c1cccc(NS(=O)(=O)c2cccc3cccnc23)c1)c1c(O)c2c(oc1=O)CCCCCC2 (stereo not shown)" observedvalue=97.8
compound="O=c1oc2c(c(O)c1C(c1cccc(NS(=O)(=O)c3cccc(S(=O)(=O)NCc4ccccc4)c3)c1)C1CC1)CCCCCC2 (stereo not shown)" observedvalue=102
compound="O=c1oc2c(c(O)c1C(c1ccccc1)C1CC1)CCCCCC2CC1CO1 (stereo not shown)" observedvalue=105
compound="CC(C)C(c1cccc(NS(=O)(=O)c2cn(C)cn2)c1)c1c(O)c2c(oc1=O)CCCCCC2 (stereo not shown)" observedvalue=128
compound="O=C(CCn1ccc2ccccc21)Nc1cccc(C(c2c(O)c3c(oc2=O)CCCCCC3)C2CC2)c1 (stereo not shown)" observedvalue=89.6
compound="CCS(=O)(=O)Nc1cccc(C(c2c(O)c3c(oc2=O)CCCCC3)C2CC2)c1 (stereo not shown)" observedvalue=95.8
compound="CCC(=O)C1CCCCCc2c1oc(=O)c(C(c1ccccc1)C1CC1)c2O (stereo not shown)" observedvalue=97.8
compound="COc1ccc(S(=O)(=O)Nc2cccc(C(c3c(O)c4c(oc3=O)CCCCCC4)C3CC3)c2)cc1 (stereo not shown)" observedvalue=131
compound="O=c1oc2c(c(O)c1C(c1cccc(NS(=O)(=O)CCCI)c1)C1CC1)CCCCCC2 (stereo not shown) [Example 365C]" observedvalue=83.5
compound="O=c1oc2c(c(O)c1C(c1cccc(NS(=O)(=O)c3cccnc3)c1)C1CC1)CCCCCC2 (stereo not shown)" observedvalue=97.1
compound="O=c1oc2c(c(O)c1C(c1cccc(NS(=O)(=O)c3ccc(C(F)(F)F)cc3)c1)C1CC1)CCCCCC2 (stereo not shown)" observedvalue=110
compound="CC(C)C(c1ccccc1)c1c(O)c2c(oc1=O)CCCCCC2 (stereo not shown)" observedvalue=80.9
compound="O=c1oc2c(c(O)c1C(c1cccc(NS(=O)(=O)c3cccc(Cl)c3)c1)C1CC1)CCCCCC2 (stereo not shown)" observedvalue=101
compound="O=c1oc2c(c(O)c1C(c1cccc(NS(=O)(=O)c3cc(Cl)ccc3Cl)c1)C1CC1)CCCCCC2 (stereo not shown)" observedvalue=94.2
compound="O=c1oc2c(c(O)c1C(c1cccc(NS(=O)(=O)CCc3ccccc3)c1)C1CC1)CCCCCC2 (stereo not shown)" observedvalue=97

---

- targetEntity: HIV-1 protease (Human immunodeficiency virus type 1 group M subtype B)
- measurementDescription: biochemical
- measurementParameters: dose 1.000 uM; read-out: HIV-1 Protease % Inhib
Listed here are compounds together with their documented inhibition at 1 µM.
valueKind: inhibition at 1 µM

compound="O=c1oc2ccccc2c(O)c1C(=Cc1ccccc1)c1ccccc1 [Example 21, 3-(1,2-Diphenylethenyl)4-hydroxycoumarin]" targetentity="HIV-1 protease (Human immunodeficiency virus type 1 group M subtype B)" valuekind="inhibition at 1 µM" observedvalue="< 10%"
compound="O=c1oc2ccccc2c(O)c1Cc1ccc2ccccc2c1 [Example 3, 4-Hydroxy-3-(2-naphthylmethyl)coumarin]" targetentity="HIV-1 protease (Human immunodeficiency virus type 1 group M subtype B)" valuekind="inhibition at 1 µM" observedvalue="< 10%"
compound="O=c1oc2c(c(O)c1C(c1ccccc1)C1CC1)CCCCCCCCCC2 (stereo not shown) [Example 114]" targetentity="HIV-1 protease (Human immunodeficiency virus type 1 group M subtype B)" valuekind="inhibition at 1 µM" observedvalue="< 10%"
compound="O=c1oc2c(c(O)c1C(c1ccccc1)C1CC1)CCC2 (stereo not shown) [Example 113]" targetentity="HIV-1 protease (Human immunodeficiency virus type 1 group M subtype B)" valuekind="inhibition at 1 µM" observedvalue=39.6%
